Sourced from patent US7700584B2

# System: Hela human cervical carcinoma
# Assay Protocol: In vitro inhibition rate to tumor cells (MTT), Hela
# Assay type: cell-based
# Condition Info: Homo sapiens, HeLa, 50 μg/ml; Table 1; read-out: inhibition rate, Results (%) Hela
Where a name gives a salt, the structure may show the parent alone.

Compound | inhibition at 50 µg/mL (%)
CC(C)C1CC23OC1(O)CC(=CBr)C2CCC3C (stereo not drawn) [Compound 17, Curcumol monobromide] | 91.6
CC(C)C1CC23OC1(O)C/C(=C\NC(C)(C)C)C2CCC3C (stereo not drawn) [Compound 15, Curcumol t-butyl amine] | 70
CC(C)C1CC23OC1(O)CC(=CN1CCNCC1)C2CCC3C (stereo not drawn) [Compound 7, Curcumol piperazine] | 90.4
C=C1CC2(OC(=O)C(C)C)OC3(CC2C(C)C)C(C)CCC13 (stereo not drawn) [Compound 3, Curcumol isobutyrate] | 69.2
CC(C)C1CC23OC1(O)CC(=CN1CCNCC1)C2CCC3C (stereo not drawn) [Compound 8, Curcumol piperazine hydrochloride] | 91.9
C=C1CC2(OC(=O)CCC)OC3(CC2C(C)C)C(C)CCC13 (stereo not drawn) [Compound 2, Curcumol butyrate] | 70.6
